test: Acid dissociation constant was determined; type: ADME
quantity name: pKa
Returns: the value as a bare number; no unit string appended.

Input line: Respond only with pKa recorded for `CCc1cc(Cc2cnc(N)nc2N)cc(CC)c1CC`
Output line: 7.12

---

Target: Dihydrofolate reductase (Rattus norvegicus)
Sequence (Q920D2 whole entry): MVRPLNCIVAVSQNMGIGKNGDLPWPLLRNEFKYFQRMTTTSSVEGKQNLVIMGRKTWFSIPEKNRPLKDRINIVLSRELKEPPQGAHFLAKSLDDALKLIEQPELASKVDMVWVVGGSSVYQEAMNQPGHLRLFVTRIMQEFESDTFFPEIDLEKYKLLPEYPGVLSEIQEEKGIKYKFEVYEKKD
Labelling: IC50 reported below 60 µM becomes yes (1); at or above becomes no (0).

Here's what some known entries look like.
Input line: A record lists `COc1ccc(Cc2cnc(N)nc2N)cc1` . Is its IC50 below 60 µM?
Output line: no (0)

Input line: A record lists `COc1ccc(Cc2cnc(N)nc2N)cc1OC` . Is its IC50 below 60 µM?
Output line: no (0)

Input line: A record lists `CC(C)c1ccc(Cc2cnc(N)nc2N)cc1` . Is its IC50 below 60 µM?
Output line: no (0)

Input line: A record lists `CCc1ccc(Cc2cnc(N)nc2N)cc1C(C)C` . Is its IC50 below 60 µM?
Output line: yes (1)

Input line: A record lists `CCc1cc(Cc2cnc(N)nc2N)cc(CC)c1CC` . Is its IC50 below 60 µM?
Output line: yes (1)

Next:
Input line: A record lists `CC(C)(C)c1ccc(Cc2cnc(N)nc2N)cc1` . Is its IC50 below 60 µM?
Output line: no (0)

---

test system: Staphylococcus aureus; test: In vitro antibacterial activity against Staphylococcus aureus (CN491)
Quick reference: MIC of the listed items.
Please state the value followed by its unit.

Input line: Report MIC on Staphylococcus aureus for this entry: `CC(C)(C)c1ccc(Cc2cnc(N)nc2N)cc1`
Output line: 10 µg/mL

Switching to the query record.
Input line: Report MIC on Staphylococcus aureus for this entry: `CCc1cc(Cc2cnc(N)nc2N)cc(CC)c1CC`
Output line: 0.1 µg/mL

---

system: Shigella flexneri; test: In vitro antibacterial activity against Shigella flexneri (CN6007)
Labelling: MIC reported below 30 µg/mL becomes met; at or above becomes not met.

Here's what some known entries look like.
Input line: A record lists `CCc1ccc(Cc2cnc(N)nc2N)cc1CC` . Is its MIC below 30 µg/mL?
Output line: met

Input line: A record lists `COc1cc(Cc2cnc(N)nc2N)cc(OC)c1OC` . Is its MIC below 30 µg/mL?
Output line: met

New cases:
Input line: A record lists `CCc1ccc(Cc2cnc(N)nc2N)cc1` . Is its MIC below 30 µg/mL?
Output line: met

Input line: A record lists `CC(C)c1ccc(Cc2cnc(N)nc2N)cc1` . Is its MIC below 30 µg/mL?
Output line: not met

Input line: A record lists `CCc1cc(Cc2cnc(N)nc2N)cc(CC)c1CC` . Is its MIC below 30 µg/mL?
Output line: met

Input line: A record lists `COc1ccc(Cc2cnc(N)nc2N)cc1OC` . Is its MIC below 30 µg/mL?
Output line: met

---

target: Bifunctional dihydrofolate reductase-thymidylate synthase (Plasmodium berghei str. ANKA); test: Inhibitory activity against dihydrofolate reductase (DHFR) enzyme from Plasmodium berghei; details: read-out: I50
Sequence (Q27713 whole entry): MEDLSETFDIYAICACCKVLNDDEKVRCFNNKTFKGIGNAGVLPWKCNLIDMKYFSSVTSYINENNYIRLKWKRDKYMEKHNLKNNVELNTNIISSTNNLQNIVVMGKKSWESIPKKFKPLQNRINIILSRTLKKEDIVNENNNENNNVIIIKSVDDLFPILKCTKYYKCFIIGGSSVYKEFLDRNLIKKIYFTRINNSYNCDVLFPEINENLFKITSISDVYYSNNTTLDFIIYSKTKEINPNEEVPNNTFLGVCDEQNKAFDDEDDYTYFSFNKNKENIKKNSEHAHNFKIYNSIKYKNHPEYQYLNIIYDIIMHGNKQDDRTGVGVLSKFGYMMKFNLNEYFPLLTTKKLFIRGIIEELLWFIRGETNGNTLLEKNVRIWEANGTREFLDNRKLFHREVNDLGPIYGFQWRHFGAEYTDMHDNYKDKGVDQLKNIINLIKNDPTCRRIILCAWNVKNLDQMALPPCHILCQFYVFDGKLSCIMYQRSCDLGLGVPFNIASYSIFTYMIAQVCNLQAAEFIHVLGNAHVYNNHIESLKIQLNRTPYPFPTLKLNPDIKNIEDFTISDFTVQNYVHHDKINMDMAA
quantity name: IC50 (nM)
Report as a plain number; the unit nM is understood.

Previously resolved entries follow.
Input line: Report IC50 on Bifunctional dihydrofolate reductase-thymidylate synthase (Plasmodium berghei str. ANKA) for this entry: COc1ccc(Cc2cnc(N)nc2N)cc1OC [DIAVERIDINE]
Output line: 210

Input line: Report IC50 on Bifunctional dihydrofolate reductase-thymidylate synthase (Plasmodium berghei str. ANKA) for this entry: `CCc1ccc(Cc2cnc(N)nc2N)cc1CC`
Output line: 68

Switching to the query record.
Input line: Report IC50 on Bifunctional dihydrofolate reductase-thymidylate synthase (Plasmodium berghei str. ANKA) for this entry: `CCc1cc(Cc2cnc(N)nc2N)cc(CC)c1CC`
Output line: 73
